Here, each record is paired with measured EC50 data.
Target: OGA (Homo sapiens)
Construct: endogenous in cells; host or cells: HEK293 cells inducible for P301L mutant human Tau (2N4R)
Experiment: OGA cellular assay (ICC detection of O-GlcNAcylated proteins in HEK293 cells inducible for P301L mutant human Tau)
Format: cell-based
Conditions: HEK293 cells inducible for P301L mutant human Tau, 6 hours incubation; read-out: Cellular hOGA; pEC50 (converted)
Description: HEK293 cells inducible for P301L mutant human Tau (isoform 2N4R) were established at Janssen. Thiamet-G was used for both plate validation (high control) and as reference compound (reference EC50 assay validation). OGA inhibition is evaluated through the immunocytochemical (ICC) detection of O-GlcNAcylated proteins by the use of a monoclonal antibody (CTD110.6; Cell Signaling, #9875) detecting 0-GlcNAcylated residues as previously described (Dorfmueller et al. 2010 Chemistry & biology, 17:1250). […]
Reply numerically in nM, unit not repeated.

Example results:
| compound | readout_unit | EC50 |
| --- | --- | --- |
| CC(c1nc2c(cc1F)OCCO2)N1CCC[C@H](NCc2ccc(F)cc2)C1 (stereo partly shown) | nM | 251 |
| Cc1cc(C[C@H]2CCCN(C(C)c3ccc4c(n3)OCCO4)C2)cc(C)n1 (mixture of isomers) | nM | 20 |
| Cc1cc([C@H]2CCCN(C(C)c3ccc4c(n3)OCCO4)C2)cc(C)n1 (single isomer, unassigned) | nM | 31.6 |
| Cc1cc([C@@H]2CCCN(C(C)c3nc4c(cc3F)OCCO4)C2)cc(C)n1 (single isomer, unassigned) | nM | 100 |
| Cc1cc(CN[C@H]2CCCN(C(C)c3ccc4c(n3)OCCO4)C2)cc(C)n1 (stereo partly shown) | nM | 251 |

Continue with the compound presented below.
So what does the record say about EC50 for Cc1cc(OC[C@H]2CCCN([C@H](C)c3ccc4c(n3)OCCO4)C2)nc(C)n1 (mixture of isomers) ?
158
